Please provide measured growth for the entries that follow.
Test system: MCF7 breast
Test: NCI-60 one-dose screen, 48 h (100 = growth as untreated, 0 = no growth, -100 = all killed)
Settings: 10 µM unless noted
This is part of a sample that, as a whole, favours compounds with a hit. Of some 83,000 tested, about 20% had one in any assay.
Answers are plain numbers, in %.

Examples with answers:
NCCCc1nnc(CCC(=O)c2nc3ccccc3[nH]2)o1
91.4
CC1SC(c2c(Cl)cccc2Cl)N(NC(=O)c2[nH]c3ccc(F)cc3c2-c2ccccc2)C1=O (stereo not drawn)
42.3

Determine from records and report growth for O=C(Nc1ccc(Nc2ccncc2)cc1)c1ccc(Nc2ccnc3ccc([N+](=O)[O-])cc23)cc1[N+](=O)[O-] 50.8

###

Test system: MOLT-4 leukemia
Test: NCI-60 one-dose screen, 48 h (100 = growth as untreated, 0 = no growth, -100 = all killed)
Settings: 10 µM unless noted
This is part of a sample that, as a whole, favours compounds with a hit. Of some 83,000 tested, about 20% had one in any assay.
growth strictly under 90% means Yes; at 90% or over means No.

CCCCCCCC1(C)NC(=O)NC1=O (stereo not given)
No
CCOC(=O)C(C(C)=O)c1nc2sc3cc(Cl)ccc3n2c(=N)c1C#N (stereo not given)
Yes
O=C1C2C3C=CC(O3)C2C(=O)N1Nc1ccccc1 (stereo not given)
No

Record C=Cc1nn2c(CCC(=O)c3nc4ccccc4[nH]3)nnc2s1 : is its growth strictly below 90%? No

API: query returns whether the compound falls strictly under 90% in growth. Query: CN(C)CCCN1c2nc3ccccc3cc2Sc2cc3ccccc3nc21 Yes

Here's an entry: Cn1c(=O)c2c(nc(Br)n2CCC(=O)Nc2ccc(F)cc2)n(C)c1=O . Is its growth below 90%? No

Answer whether the compound COC(=O)CC1=C(C)/C(=C/c2[nH]c(-c3ccc[nH]3)cc2OC)N=C1C has growth strictly less than 90% Yes

Is it true that growth reported for O=C(Cc1ccccn1)C(F)(F)C(F)(F)C(F)(F)F is less than 90%? No

Given Cc1cc(O)c2c(c1)C[C@H]1[C@@H]3CC[C@H]4CC(=O)CC[C@]4(C)[C@H]3CC(=O)[C@]21C , is recorded growth strictly lower than 90%? Yes

Decide: growth of Oc1ccccc1C=Nc1ccccc1N=Cc1ccccc1O.[Cu+2] strictly below 90%? Yes

###

System: UO-31 renal
Assay: NCI-60 one-dose screen, 48 h (100 = growth as untreated, 0 = no growth, -100 = all killed)
Conditions: 10 µM unless noted
This is part of a sample that, as a whole, favours compounds with a hit. Of some 83,000 tested, about 20% had one in any assay.
# label = Met if growth >= 50% else Not met

Below are worked cases with known answers.
CCCc1nn(C)c2c(=O)[nH]c(-c3cc(S(=O)(=O)N4CCN(C)CC4)ccc3OCC)nc12
Met
O=C1OCC/C1=C\OCCCO/C=C1\CCOC1=O
Met
ClC1=C(Cl)C(=C2C(Cl)=C(Cl)C(Cl)=C2Cl)C(Cl)=C1Cl
Met
COc1ccc2nc(-c3ccc(-n4cncc4-c4ccc(OC)c(N)c4)cc3)sc2c1
Met
C=Cc1nn2c(CCC(=O)c3nc4ccccc4[nH]3)nnc2s1
Met
C=CCCCCCCCCC(=O)[O][Sn]([CH2]CCC)([CH2]CCC)[CH2]CCC
Not met
O=C1C[C@@H]2/C(=C(O)\C=C\c3ccccc3)C(=O)C=C[C@@H]2O1
Not met
CCCCSc1cc(C)nc(N)n1
Not met
CN1CCN(CC(=O)Nc2nc3c(s2)Nc2cc(Cl)c(Cl)cc2NC3=O)CC1
Met
CCCCC(C#N)C(N)=O (centres undefined)
Met

// switching to the query compound
Identify whether the reported growth of the following compound is 50% or greater: CC[C@H](C)C(=O)O[C@H]1C[C@@H](C)C=C2C=C[C@H](C)[C@H](CC[C@@H]3C[C@@H](O)CC(=O)O3)[C@H]21 Met
